Data origin: paper PMC8396812

- testTarget: ApisOBP9 (Acyrthosiphon pisum)
- Construct: pET30, E. coli, N-terminal His-tag removed with enterokinase
- Sequence (A0A8R1TD77 25-165): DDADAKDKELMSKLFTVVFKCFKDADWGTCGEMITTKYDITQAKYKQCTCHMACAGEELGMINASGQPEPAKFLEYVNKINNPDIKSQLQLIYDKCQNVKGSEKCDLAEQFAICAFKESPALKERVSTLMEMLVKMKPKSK
- assayDetails: biochemical
- testSettings: read-out: ApisOBP9-WT
- Experimental: Affinity constants were evaluated by the competitive fluorescent method, using a PerkinElmer FL 6500 spectrofluorometer in a right-angle configuration at room temperature and quartz cuvettes with a 1 cm path. The fluorescent probe N-phenyl-1-naphthylamine (1-NPN) was excited at 337 nm, and emission spectra were recorded between 380 and 450 nm. […] Intensity values were recorded at the peak maximum, around 412 nm. […]
metric: pKd
For clarity, pKd is expressed as the negative log10 of concentration in mol/L.

Request: Tell me the measured pKd of `CC1=C(C=O)C(C)(C)CC=C1` , please.
Response: 4.94

Request: Tell me the measured pKd of CCCC/C=C\CCCCCCOC(C)=O [(Z)-7-Dodecenyl acetate] , please.
Response: 5.86

Request: Tell me the measured pKd of `CCCCCCCCCCCCCCCCO` , please.
Response: 5.72

Request: Tell me the measured pKd of `CCCCCCCCCC(=O)O` , please.
Response: 4.84

Request: Tell me the measured pKd of `CCCCCC/C=C\CCCCCCCC=O` , please.
Response: 5.84

Request: Tell me the measured pKd of CCCC/C=C\CCCCCCCC=O [(Z)-9-Tetradecenal] , please.
Response: 5.27

Request: Tell me the measured pKd of `CCCCCCCCCCCCO` , please.
Response: 5.42

Request: Tell me the measured pKd of `CCCC/C=C\CCCCCCCCCC=O` , please.
Response: 5.94

Request: Tell me the measured pKd of CCCC/C=C\CCCCCCCCCCCC=O [(Z)-13-Octadecenal] , please.
Response: 5.64

Request: Tell me the measured pKd of `CCCC/C=C\CCCCCCCCCCO` , please.
Response: 5.86

Request: Tell me the measured pKd of `CCCCCCCCCCCCCCO` , please.
Response: 5.47

Request: Tell me the measured pKd of `COc1cc(/C=C/C=O)ccc1O` , please.
Response: 5.10
